I'd appreciate it if you could supply MIC values for the items below.
- Test system: Aspergillus niger ATCC 16404
- ASSAY METHOD TEXT: MIC by agar dilution (antifungal)
- Type: cell-based
- CONDITION SUMMARY: ATCC16404, read-out: Minimum inhibitory concentration (MIC)

Just so you know, measured MIC for COc1cc(/C=C2/N=C(c3ccccc3NS(=O)(=O)c3ccc(C)cc3)OC2=O)cc(OC)c1OC came out at > 32 µg/mL

For record COc1ccc(/C=C2/N=C(c3ccccc3NS(=O)(=O)c3ccc(C)cc3)OC2=O)cc1 the listed MIC is > 32 µg/mL

// MIC value for Cc1ccc(S(=O)(=O)Nc2ccccc2C2=N/C(=C/c3cccs3)C(=O)O2)cc1 : > 32 µg/mL

Memo: Cc1ccc(S(=O)(=O)Nc2ccccc2C2=N/C(=C/c3ccco3)C(=O)O2)cc1 , reported MIC: > 32 µg/mL

Quick note, MIC for Cc1ccc(S(=O)(=O)Nc2ccccc2C2=N/C(=C/c3ccc(OCc4ccccc4)cc3)C(=O)O2)cc1 landed at > 32 µg/mL

For reference, reported MIC for Cc1ccc(S(=O)(=O)Nc2ccccc2C2=N/C(=C/c3ccncc3)C(=O)O2)cc1 stands at > 32 µg/mL

Consider Cc1ccc(S(=O)(=O)Nc2ccccc2C2=N/C(=C/c3ccccc3)C(=O)O2)cc1 . Its measured MIC is 32 µg/mL

The molecule listed as Cc1ccc(S(=O)(=O)Nc2ccccc2C2=N/C(=C/c3ccc(Cl)cc3)C(=O)O2)cc1 has a reported MIC of 16 µg/mL

Data point: COc1ccc(OC)c(/C=C2/N=C(c3ccccc3NS(=O)(=O)c3ccc(C)cc3)OC2=O)c1 ; MIC = 8 µg/mL

Sure, the documented MIC for Cc1ccc(S(=O)(=O)Nc2ccccc2C2=N/C(=C/c3ccc([N+](=O)[O-])cc3)C(=O)O2)cc1 is > 32 µg/mL

###

- System: HepG-2
- ASSAY METHOD TEXT: SRB cellular proliferation assay
- Type: cell-based, human
- CONDITION SUMMARY: Homo sapiens, HepG2, HepG-2 cells, mean ± SD (n = 3), read-out: IC50
What IC50 was measured for each of the following?
Form entry: value (µg/mL) — number only.

IC50 in this record for COc1ccc(OC)c(/C=C2/N=C(c3ccccc3NS(=O)(=O)c3ccc(C)cc3)OC2=O)c1 [Compound 9c] : 19.1

According to the records, this molecule Cc1ccc(S(=O)(=O)Nc2ccccc2C2=N/C(=C/c3ccc(Cl)cc3)C(=O)O2)cc1 [Compound 9e] displays IC50 of 15

Briefly, IC50 measured for Cc1ccc(S(=O)(=O)Nc2ccccc2C2=N/C(=C/c3ccc([N+](=O)[O-])cc3)C(=O)O2)cc1 [Compound 9f] : 6.39

Lab note: COc1ccc(/C=C2/N=C(c3ccccc3NS(=O)(=O)c3ccc(C)cc3)OC2=O)cc1 [Compound 9b] gave IC50 of 8.53

For this molecule ( Cc1ccc(S(=O)(=O)Nc2ccccc2C2=N/C(=C/c3ccc(OCc4ccccc4)cc3)C(=O)O2)cc1 [Compound 9g] ), measured IC50 is 32.5

So, Cc1ccc(S(=O)(=O)Nc2ccccc2C2=N/C(=C/c3ccccc3)C(=O)O2)cc1 [Compound 9a] ? Its IC50 was 11

molecule Cc1ccc(S(=O)(=O)Nc2ccccc2C2=N/C(=C/c3ccco3)C(=O)O2)cc1 [Compound 9i] , IC50 observed: 27

For reference, reported IC50 for COc1cc(/C=C2/N=C(c3ccccc3NS(=O)(=O)c3ccc(C)cc3)OC2=O)cc(OC)c1OC [Compound 9d] stands at 22.7

The recorded IC50 for Cc1ccc(S(=O)(=O)Nc2ccccc2C2=N/C(=C/c3ccncc3)C(=O)O2)cc1 [Compound 9k] is 33.1

// sample COc1cccc2c1C(=O)c1c(O)c3c(c(O)c1C2=O)C[C@@](O)(C(=O)CO)C[C@@H]3O[C@H]1C[C@H](N)[C@H](O)[C@H](C)O1 [Doxorubicin, reference compound] , its IC50 was 5.11

Query Cc1ccc(S(=O)(=O)Nc2ccccc2C2=N/C(=C/c3cccs3)C(=O)O2)cc1 [Compound 9j] yields IC50 of 25.5
